tested on: human breast cancer (MCF-7); experiment: Inhibition of tumour cell proliferation in vitro ([3H]thymidine incorporation), MCF-7; format: cell-based; conditions: MCF7, 24 hours, read-out: The median inhibition concentration (IC50, nM) of MCF-7
recorded endpoint: IC50 (nM)

Here are 3 compounds together with their reported answers.
Look up and report measured IC50 (human breast cancer (MCF-7)) for the following compound: N#CNC(=Nc1ccncc1)NCCCCCOc1ccccc1 [Prior art C, reference compound]
250

Look up and report measured IC50 (human breast cancer (MCF-7)) for the following compound: N#CNC(=Nc1ccncc1)NCCCCOc1ccccc1 [Prior art B, reference compound]
920

Look up and report measured IC50 (human breast cancer (MCF-7)) for the following compound: N#CN=C(NCCCCCCOc1ccc2c(c1)OCO2)c1cccnc1 [Example no. 3]
740

P = CCCCCCCCNC(=NC#N)c1cccnc1 [Prior art A, reference compound]
Q = N#CN=C(NCCCCCCOc1ccc(Cl)cc1)c1cccnc1 [Example no. 1]
R = COc1ccccc1OCCCCCCNC(=NC#N)c1cccnc1 [Example no. 2]
Hi! Can you put these in order of IC50, lowest number first? Answer format: list of labels, ordered as asked.
Q, R, P

###

tested on: human small cell lung carcinoma (NYH); experiment: Inhibition of tumour cell proliferation in vitro ([3H]thymidine incorporation), NYH; assay type: cell-based; conditions: 24 hours, read-out: The median inhibition concentration (IC50, nM) of NYH
recorded endpoint: IC50 (nM)

P = COc1ccccc1OCCCCCCNC(=NC#N)c1cccnc1 [Example no. 2]
Q = N#CNC(=Nc1ccncc1)NCCCCCOc1ccccc1 [Prior art C, reference compound]
So which one has the bigger IC50 here, P or Q ? Answer by quoting the chosen item's label.
P

a = N#CNC(=Nc1ccncc1)NCCCCOc1ccccc1 [Prior art B, reference compound]
b = N#CN=C(NCCCCCCOc1ccc(Cl)cc1)c1cccnc1 [Example no. 1]
So which one has the bigger IC50 here, a or b ? Answer by quoting the chosen item's label.
a
(a: 380 nM, b: 39 nM)
